The origin of these recorded values is ChEMBL document CHEMBL3988442.

Study Target: Chromo domain-containing protein 1 (Saccharomyces cerevisiae (strain ATCC 204508 / S288c) (Baker's yeast)) (UniProt P32657)
Sequence (P32657 whole entry, the tested form may be a part): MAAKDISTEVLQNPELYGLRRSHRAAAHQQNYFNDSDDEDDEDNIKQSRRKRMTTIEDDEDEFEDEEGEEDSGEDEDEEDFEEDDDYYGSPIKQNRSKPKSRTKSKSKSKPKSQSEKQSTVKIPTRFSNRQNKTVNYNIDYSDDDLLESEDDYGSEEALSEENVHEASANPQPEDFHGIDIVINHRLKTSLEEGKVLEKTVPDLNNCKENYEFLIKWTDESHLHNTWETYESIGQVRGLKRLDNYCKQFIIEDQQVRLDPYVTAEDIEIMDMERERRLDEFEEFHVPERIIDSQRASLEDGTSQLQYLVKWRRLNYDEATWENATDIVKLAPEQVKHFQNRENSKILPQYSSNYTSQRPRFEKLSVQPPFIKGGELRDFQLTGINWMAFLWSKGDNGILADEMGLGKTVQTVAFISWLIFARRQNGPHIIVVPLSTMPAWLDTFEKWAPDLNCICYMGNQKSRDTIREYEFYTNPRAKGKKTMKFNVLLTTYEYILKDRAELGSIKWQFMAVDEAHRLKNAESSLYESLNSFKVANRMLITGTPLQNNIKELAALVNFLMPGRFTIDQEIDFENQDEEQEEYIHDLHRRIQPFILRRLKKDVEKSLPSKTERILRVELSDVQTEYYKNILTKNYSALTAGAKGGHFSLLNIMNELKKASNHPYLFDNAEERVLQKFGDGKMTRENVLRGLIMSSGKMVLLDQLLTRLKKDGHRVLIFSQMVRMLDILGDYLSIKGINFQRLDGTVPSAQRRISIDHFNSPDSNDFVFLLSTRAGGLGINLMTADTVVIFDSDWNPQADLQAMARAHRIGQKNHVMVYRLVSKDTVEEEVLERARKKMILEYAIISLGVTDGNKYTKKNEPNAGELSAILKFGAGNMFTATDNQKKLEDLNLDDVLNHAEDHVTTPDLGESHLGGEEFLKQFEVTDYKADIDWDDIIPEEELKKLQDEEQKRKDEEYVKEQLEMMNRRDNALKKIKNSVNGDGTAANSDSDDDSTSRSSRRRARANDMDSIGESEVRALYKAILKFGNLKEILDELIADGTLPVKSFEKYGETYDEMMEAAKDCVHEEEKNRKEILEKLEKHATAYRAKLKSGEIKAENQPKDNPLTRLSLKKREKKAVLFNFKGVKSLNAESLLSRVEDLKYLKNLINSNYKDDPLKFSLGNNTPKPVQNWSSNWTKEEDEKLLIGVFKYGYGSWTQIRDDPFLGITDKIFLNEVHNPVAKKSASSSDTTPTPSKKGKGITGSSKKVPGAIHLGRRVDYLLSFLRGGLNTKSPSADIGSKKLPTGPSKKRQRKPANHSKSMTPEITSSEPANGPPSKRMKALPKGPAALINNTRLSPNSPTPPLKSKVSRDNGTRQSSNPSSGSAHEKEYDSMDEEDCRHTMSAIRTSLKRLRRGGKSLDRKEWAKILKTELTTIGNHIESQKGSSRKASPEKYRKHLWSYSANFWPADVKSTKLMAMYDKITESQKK
Experimental Details: ScCHD-1 Enzyme Inhibition Assay; also: in the data most compounds retested in dose-response had high values
Format: functional
Design: scale not given: direction of the effect not stated beside the values
Conditions Used: 30 µM
Give measured Percent Effect for each item. Keep answers brief.
Give bare numbers, in %.

Consider the worked cases shown below.
[[record]]
compound = "Cc1cccc(CN(Cc2ccc(C)o2)C2CC(C)(C)NC(C)(C)C2)n1"
unit = "%"
measured_result = -0.669

[[record]]
compound = "CCC(CC)c1cc(CNC(=O)N2CCCC(N(C)C)C2)on1 (stereo not drawn)"
unit = "%"
measured_result = -6.35

[[record]]
compound = "CC(C)(C)c1nc(CN2CCCC2CCc2ccccc2)no1 (stereo not drawn)"
unit = "%"
measured_result = 1.21

[[record]]
compound = "Cc1cc(CN2CCN(C(=O)NCc3nc(C)cs3)CC2)on1"
unit = "%"
measured_result = -3.29

[[record]]
compound = "O=C(NC1(c2cccc(F)c2)CCOCC1)c1ccccn1"
unit = "%"
measured_result = 2.74

[[record]]
compound = "Cc1n[nH]c(C)c1C1COCCN1C(=O)Cc1cccc(F)c1 (stereo not drawn)"
unit = "%"
measured_result = -1.14


For each entry beneath this line, provide reported Percent Effect.
1. Cc1cnn(CC(C)NCc2nc(-c3ccco3)no2)c1 (stereo not drawn)
2. CCOc1ccnc(N2CCN(C(=O)c3cccnc3O)CC2)n1
3. Cn1cnnc1C1CCN(C(=O)CCCOc2ccccc2F)CC1
4. O=C(CCc1cscn1)NS(=O)(=O)c1ccc2c(c1)CCC2
5. c1cnn(CC2CCCCN2c2ncnc3sccc23)c1 (stereo not drawn)
6. CC(C)c1noc(C(C)N2CCN(Cc3ccco3)CC2)n1 (stereo not drawn)
7. c1cncc(OCc2noc3c2CN(Cc2ccoc2)CC3)c1
8. NC(=O)c1nc(COc2ccc3c(c2)OCO3)no1

### Response
1. 10.7
2. -4.5
3. -2.08
4. -4.74
5. -3.05
6. 0.33
7. -11.2
8. -8.03

For each entry beneath this line, provide reported Percent Effect.
1. CS(=O)(=O)NCCCNC(=O)c1cccnc1O
2. CCC(=O)N(C)C1CCN(Cc2ncc(C)c(OC)c2C)CC1

### Response
1. -4.62
2. -7.08

For each entry beneath this line, provide reported Percent Effect.
1. CCN1CCN(C2CCN(Cc3nnc(C(C)(C)C)o3)CC2)C1=O
2. CC(=O)N1C[C@H](NC(=O)c2cscn2)[C@@H]2OCCC[C@@H]21
3. OCCN1CCOC2(CCCN(c3cccc(F)c3)C2)C1 (stereo not drawn)
4. Cc1nc(CN2C(=O)COC3(CCN(Cc4nccs4)CC3)C2C)cs1 (stereo not drawn)
5. CC(=O)N1CCCN(C(=O)c2ccn(-c3cccc(Cl)c3)n2)CC1

### Response
1. -21.7
2. -0.517
3. -6.84
4. -5.58
5. -6

For each entry beneath this line, provide reported Percent Effect.
1. O=C(NCCOc1ccc(F)c(F)c1)NCc1ccncc1
2. CCOCCn1nnc(C2(NC(=O)c3ccccc3)CCCC2)n1
3. COc1c(CNCCNC(=O)c2ccco2)c(C)nn1C

### Response
1: -2.73; 2: -4.99; 3: 0.206

For each entry beneath this line, provide reported Percent Effect.
1. CN(CC(=O)N1CCCC1c1cnn(C)c1)c1ccc(Cl)cn1 (stereo not drawn)
2. COc1ccccc1OC1(C(=O)O)CCN(c2nccnc2C)CC1
3. O=C(c1ccc(N2CCCC2)nn1)N1CCCC(n2cccn2)C1 (stereo not drawn)
4. CCc1cnc(N2CC3(CCN(C(=O)c4ccoc4)C3)C2)nc1
5. CCN(CC)C(=O)c1cc(C2CCCN2C)ccn1 (stereo not drawn)
6. CS(=O)(=O)N1CCC(C(=O)NC(Cc2ccsc2)c2ccccn2)CC1 (stereo not drawn)
7. Cc1cnc2c(S(=O)(=O)NCC3CCS(=O)(=O)C3)cccc2c1 (stereo not drawn)

### Response
[0.471, -6.84, 1.12, -0.64, -12.8, -8.15, -10.9]

For each entry beneath this line, provide reported Percent Effect.
1. CC1CN(CC(=O)NC(=O)NCc2ccccc2)CCO1 (stereo not drawn)
2. Cc1nn(C)c(Cl)c1C1CCCN1c1ncnc2sccc12 (stereo not drawn)
3. O=C(c1ccncc1F)N1CCN(CC2CC2)c2ncccc2C1
4. CC(NC(=O)c1cc(-c2cccc(Cl)c2)no1)C(=O)N1CCCC1 (stereo not drawn)
5. CCn1cnnc1C1CCN(C(=O)c2ccccc2OC)CC1
6. O=C(NCCNc1ncccn1)c1ccc(-c2ccco2)[nH]c1=O
7. CC(C)Nc1nc(N2CCOCC2)nc2c1CN(CC(=O)N(C)C)CC2

### Response
1: -8.02; 2: 0.644; 3: -9.4; 4: -4.18; 5: -3.6; 6: -11.4; 7: -5.05

* * *

Study Target: AMP-activated protein kinase, AMPK (Homo sapiens) (UniProt P54646+O43741+P54619+Q9UGJ0+Q9Y478+Q13131+Q9UGI9)
Experimental Details: AMP-dependent Kinase enzyme assay. An in vitro enzyme assay that detects ADP turnover that is directly proportional to AMPK activity. This uses naive AMPK that is activated during the assay with MK-8722
Format: functional
Parameters: scale not given: direction of the effect not stated beside the values
Conditions Used: 30 µM
Quantity: Percent Effect (%)
Give bare numbers, in %.

Consider the worked cases shown below.
[[record]]
compound = "COCCN1CCC2(CCN(Cc3nccs3)CC2)C1=O"
quantity = "Percent Effect"
measured_result = -1.24

[[record]]
compound = "CN(Cc1ccc(Cl)s1)C(=O)NCc1nnc2n1CCC2"
quantity = "Percent Effect"
measured_result = 2.58

[[record]]
compound = "CN(Cc1cccs1)C(=O)CS(=O)(=O)Cc1ccc(Cl)c(Cl)c1"
quantity = "Percent Effect"
measured_result = 4.47

[[record]]
compound = "COc1ccccc1Oc1ncccc1CNC(=O)[C@@H](C)NC(C)=O"
quantity = "Percent Effect"
measured_result = -4.59

[[record]]
compound = "CC(C)(C)c1cnc(CN2CCC[C@H]2CO)o1"
quantity = "Percent Effect"
measured_result = 4.08


For each entry beneath this line, provide reported Percent Effect.
1. Cn1cc(CCNC(=O)NC2CCS(=O)(=O)C2)cn1 (centres undefined)
2. O=C1CCc2cc(C(=O)NCc3ccc(-n4cncn4)nc3)ccc2N1
3. CCNC(=O)c1ccc2c(c1)nc1n2CCN(Cc2ccco2)C1
4. Cc1ccccc1-c1cncc(C2CCN(C(=O)CN(C)C)CC2)n1
5. O=C(CCN1CCCC1=O)NCc1cccnc1Oc1ccccc1
6. NS(=O)(=O)Cc1ccc(CNC(=O)NCC2CCOC2)cc1 (centres undefined)

### Response
1. -3.17
2. -0.201
3. 10.5
4. 14.4
5. 0.461
6. 5.79

For each entry beneath this line, provide reported Percent Effect.
1. Cc1cc(C)nc(N2CCN(C(=O)c3cc(Cl)c[nH]3)CC2)n1
2. Cc1nc(C2CCCN2Cc2nc(C)c(C)o2)no1 (centres undefined)
3. CN(C)c1ncc(CN2CCC(c3nnsc3S(C)(=O)=O)CC2)cn1
4. CCn1c(C2CCCN(Cc3nccn3CCOC)C2)nn(C)c1=O (centres undefined)
5. CCN(CC1CN(Cc2ncc[nH]2)CCO1)c1cccnn1 (centres undefined)
6. Cc1cnn(CC2CCCN2C(=O)c2cc3ccccc3[nH]c2=O)c1 (centres undefined)

### Response
[-2.54, -2.94, 11.6, -5.71, -8.56, -12.6]

For each entry beneath this line, provide reported Percent Effect.
1. Cc1ccccc1CNC(=O)Cc1c(C)nc2cc(=O)[nH]n2c1C
2. Cc1noc(C)c1CN1C(=O)[C@H]2CC[C@@H]1CN(Cc1cccnc1N)C2
3. Cc1cnn(CCC(=O)N2CCC(Nc3cccnn3)CC2)c1
4. O=C(NCCCn1cccn1)C1(c2ccc(Br)cc2)CC1

### Response
1: -32.1; 2: 15.3; 3: 1.21; 4: 12.9

For each entry beneath this line, provide reported Percent Effect.
1. CCc1ncnc2c1CCN(C(=O)Cc1ccccn1)CC2
2. Cn1cc(Br)c(=O)c(NS(=O)(=O)c2ccc(F)cc2)c1
3. O=C(CN1CCCCCCC1=O)NCc1ccccn1
4. O=C(NC1(c2cccc(F)c2)CCOCC1)c1ccccn1

### Response
[-1.05, -1.93, -2.69, -0.416]

For each entry beneath this line, provide reported Percent Effect.
1. CCCn1nc2c(cc1=O)CN(CCCS(N)(=O)=O)CC2
2. CCCc1cc(NC2CCc3ncnn3C2)n2ncnc2n1 (centres undefined)

### Response
1: -142; 2: 7.3

For each entry beneath this line, provide reported Percent Effect.
1. CN(C)C(=O)CNC(=O)CCn1ncc2c(Cl)cccc21
2. CC(C)c1n[nH]c(C2CN(Cc3nnc(C4CC4)o3)CCO2)n1 (centres undefined)
3. Cc1nc(C)n(C2CCCN(C(=O)c3csnn3)C2)n1 (centres undefined)
4. Cc1nc(COC[C@@H]2CC[C@H]3[C@H](CCN3S(C)(=O)=O)O2)cs1
5. CC(=O)N(Cc1ncc(C)o1)C1CCN(Cc2cccc(C#N)c2)C1 (centres undefined)
6. Cc1cc(CN2CCN(C(c3ccccc3)c3ccccc3)CC2)no1
7. CC(NC(N)=O)C(=O)N(C)CCCc1cc(-c2ccccc2)no1 (centres undefined)

### Response
1: 2.92; 2: 9.78; 3: -13; 4: -0.571; 5: -3.95; 6: -1.9; 7: 7.96
